The reported measurements were obtained from patent US11419806B2.

# Tested on: A. actinomycetemcomitans
# assay procedure: Twenty-four hour biofilm growth (crystal violet)
# Assay type: cell-based
# condition context: 10 μmol/ml
reported property: biofilm growth: OD 630 nm at 24 hrs divided by OD of control (control = 1)
Respond using a number only.

**Q:** Write down the reported biofilm growth: OD 630 nm at 24 hrs divided by OD of control (control = 1) of OC[C@@H](O)[C@@H](O[C@H]1O[C@H](CO)[C@H](O)[C@H](O)[C@H]1O)[C@H](O)[C@@H](O)CO , test system: A. actinomycetemcomitans.
**A:** 0.6496

**Q:** # iterate: O[C@H]1[C@H](O)[C@@H](O)[C@H](O)[C@@H](O)[C@H]1O
**A:** 0.8378

**Q:** Would you mind doing OC[C@H]1O[C@@](O)(CO)[C@@H](O[C@H]2O[C@H](CO)[C@@H](O)[C@H](O)[C@H]2O)[C@@H]1O as well?
**A:** 0.9794

**Q:** One more compound: CC(=O)N[C@H](C=O)[C@@H](O)[C@H](O)[C@H](O)CO
**A:** 1.0569
